These entries and their values trace back to patent US7514534.

target: T1, MMP-26 (human); test: cell-based or functional assay
T1 sequence: ASDF
Measure Name: % Inhibition of JEG-3 cell invasion, 25 µg/ml (first test) (%)
One number for each entry, in %.

Answered examples (4):
Binder	Obs Value
H6-orig (antibody, human IgG4, V domains shown) VH: EVQLLESGGGLVQPGGSLRLSCAASGFTFSQYWMNWVRQAPGKGLEWVSGIGPSGGITYYADSVKGRFTISRDNSKNTLYLQMNSLRAEDTAVYYCARGEEDGYNSDYWGQGTLVTVSS VL: QSELTQPPSASGSPGQSVTISCTGTSSDVGAYNYVSWYQQHPGKAPKLIIYEVNKRPSGVPDRFSASKSGNTASLTVSGLQAEDEADYYCNSYAGSNSLIFGGGTKLTVLG	50
D07 (antibody, human IgG4, V domains shown) VH: EVQLLESGGGLVQPGGSLRLSCAASGFTFSEYNMFWVRQAPGKGLEWVSYIYSSGGSTDYADSVKGRFTISRDNSKNTLYLQMNSLRAEDTAVYYCARVGIAARPFDPWGQGTLVTVSS VL: QSELTQPASVSGSPGQSITISCTGTNSDIGGYNYVSWYQQHPGKVPKLLIFEVNNRPSGVSSRFSGSKSGDTASLTISGLQPEDEAVYYCGSFTVSVTYVFGTGTKVTVLG	36
B10 (antibody, human IgG4, V domains shown) VH: EVQLLESGGGLVQPGGSLRLSCAASGFTFSSYAMMWVRQAPGKGLEWVSWIVPSGGTTFYADSVKGRFTISRDNSKNTLYLQMNSLRAEDTAVYYCARGLYRWGQGTLVTVSSASTKGPSVFP VL: DIQMTQSPSSLSASVGDRVTIACRTSQNVNRYLNWYQHKLGQAPKLLIYGATILQSGVPSRFRGSGSGTDFILTITNLQPEDFAVYYCQQTYSPPLTFGQGTKAEFKGTVAAPSV	26
A01 (antibody, human IgG4, V domains shown) VH: EVQLLESGGGLVQPGGSLRLSCAASGFTFSAYNMFWVRQAPGKGLEWVSGIGSSGGIAPYADSVKGRFTISRDNSKNTLYLQMNSLRAEDTAVYYCARAAYEVENWFDPWGQGTLVTVSS VL: DIQMTQSPGTLSLSPGERATLSCRASQIVRSTYLAWYQQKPGQAPRLLIYGTSSRATGVPDRFSGSGSGTDFTLTISGLEPEDFALYYCQRYGDSPPITFGQGTRLEITR	51

Proceeding to the next binder to report its % Inhibition of JEG-3 cell invasion, 25 µg/ml (first test).
Inquiry: Which value of % Inhibition of JEG-3 cell invasion, 25 µg/ml (first test) has been reported for B06 (antibody, human IgG4, V domains shown) VH: EVQLLESGGGLVQPGGSLRLSCAASGFTFSQYFMKWVRQAPGKGLEWVSSISPSGGLTQYADSVKGRFTISRDNSKNTLYLQMNSLRAEDTAVYYCARGGIEAPGSPSDYWGQGTLVTVSS VL: DIQMTQSPSFLSASVGDRVTITCRASQGISSYLAWYQQKPGKAPKLLIYAASTLQSGVPSRFSGSGSGTDFTLTISSLEPEDFATYYCQESYSTPFFTFGPGTKVDIRR in the records?
Reply text: 30
